Source of measurements: PubChem BioAssay AID1209

Below: a set of entries, each annotated with reported inhibition.
target.under.test: Mannose-6-phosphate isomerase (Homo sapiens) (UniProt P34949)
Sequence (P34949 whole entry, looked up): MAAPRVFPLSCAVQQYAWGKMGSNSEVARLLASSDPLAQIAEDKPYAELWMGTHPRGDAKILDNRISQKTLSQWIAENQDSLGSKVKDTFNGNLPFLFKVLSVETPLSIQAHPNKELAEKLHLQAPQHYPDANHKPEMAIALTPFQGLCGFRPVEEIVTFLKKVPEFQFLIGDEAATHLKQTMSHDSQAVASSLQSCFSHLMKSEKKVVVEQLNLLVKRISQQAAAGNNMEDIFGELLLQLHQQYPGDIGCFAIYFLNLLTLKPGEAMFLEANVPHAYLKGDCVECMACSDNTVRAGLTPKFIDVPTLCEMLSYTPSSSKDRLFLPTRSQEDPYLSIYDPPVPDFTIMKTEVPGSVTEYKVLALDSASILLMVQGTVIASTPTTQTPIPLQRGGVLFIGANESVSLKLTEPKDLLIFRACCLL
assay: inhibitors of human PMI, primary screen, biochemical, fluorescence intensity, coupled assay (AID 1209);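 note: plate controls were DMSO vehicle for no effect and wells lacking substrate for full effect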
assay.setup: purified PMI enzyme, at 20 µM, active compounds read high
The whole screen tested about 190,000 compounds, of which about 810 (0.43%) were called active. This excerpt belongs to a sample that is enriched for actives.
property: inhibition (%)

[
  {
    "compound": "O=C1c2ccccc2C(=O)N1Cc1nc2ccccc2o1",
    "units.symbol": "%",
    "reading": -0.5
  },
  {
    "compound": "CCc1c(O)cc2n(c1=O)-c1ccc(Cl)cc1C2(C)C",
    "units.symbol": "%",
    "reading": 2.7
  },
  {
    "compound": "COc1ccccc1C1=Nn2c(COc3ccccc3)nnc2SC1",
    "units.symbol": "%",
    "reading": 67.8
  },
  {
    "compound": "O=C1c2ccccc2C(=O)N1c1ccc(-c2nc3ccccc3o2)cc1",
    "units.symbol": "%",
    "reading": -2.8
  },
  {
    "compound": "CC(NC(=O)Nc1ccc2c(c1)OCO2)C1CCCO1 (stereo unspecified)",
    "units.symbol": "%",
    "reading": 0.5
  },
  {
    "compound": "O=C(Nc1ccccc1NC(=O)NC1CCCCC1)NC1CCCCC1",
    "units.symbol": "%",
    "reading": 6
  }
]

====

target.under.test: Mannose-6-phosphate isomerase (Homo sapiens)
assay: inhibitors of human PMI, primary screen, biochemical, fluorescence intensity, coupled assay (AID 1209);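 note: plate controls were DMSO vehicle for no effect and wells lacking substrate for full effect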
assay.setup: purified PMI enzyme, at 20 µM
The whole screen tested about 190,000 compounds, of which about 810 (0.43%) were called active. Cut-off read from the data, not from the text of the source: active = inhibition above about 50%; inactive = the rest. The full list was thinned out, with actives kept by preference.
Classes used: 1.0 (active), 0.0 (inactive)

[
  {
    "molecule": "CCCn1nnnc1NC(=O)c1ccc(C)cc1Cl",
    "target.under.test": "Mannose-6-phosphate isomerase (Homo sapiens)",
    "assigned.label": 1.0
  },
  {
    "molecule": "CCN(CC)C(=O)CSc1nnc(COc2ccc(OC)cc2)n1N",
    "target.under.test": "Mannose-6-phosphate isomerase (Homo sapiens)",
    "assigned.label": 0.0
  },
  {
    "molecule": "CCOC(=O)CSc1nc2ccccc2c(=O)n1CC1COc2ccccc2O1 (centres undefined)",
    "target.under.test": "Mannose-6-phosphate isomerase (Homo sapiens)",
    "assigned.label": 0.0
  },
  {
    "molecule": "CN(C)S(=O)(=O)c1cccc(N2C(=O)CC3(CCCCC3)CC2=O)c1",
    "target.under.test": "Mannose-6-phosphate isomerase (Homo sapiens)",
    "assigned.label": 0.0
  },
  {
    "molecule": "CCN(CC)Cc1c(O)ccc2c(=O)c(-c3ccc4c(c3)OCCO4)coc12",
    "target.under.test": "Mannose-6-phosphate isomerase (Homo sapiens)",
    "assigned.label": 0.0
  },
  {
    "molecule": "CCOC(=O)C1=C(C)N(C)C(=O)NC1c1cc2c(cc1[N+](=O)[O-])OCO2 (centres undefined)",
    "target.under.test": "Mannose-6-phosphate isomerase (Homo sapiens)",
    "assigned.label": 0.0
  },
  {
    "molecule": "COc1ccc(OCc2nnc(SCC(=O)N(C)Cc3ccccc3)n2N)cc1",
    "target.under.test": "Mannose-6-phosphate isomerase (Homo sapiens)",
    "assigned.label": 1.0
  },
  {
    "molecule": "CCOc1cc2c(C#N)c(N3CCCCC3)nc(N)c2c(N)n1",
    "target.under.test": "Mannose-6-phosphate isomerase (Homo sapiens)",
    "assigned.label": 1.0
  },
  {
    "molecule": "CCS(=O)(=O)c1ccc2oc(Nc3ccc(C(C)C)cc3)nc2c1",
    "target.under.test": "Mannose-6-phosphate isomerase (Homo sapiens)",
    "assigned.label": 1.0
  },
  {
    "molecule": "CC(=O)Nc1c(O)nc(SCC(=O)Nc2sc3c(c2C#N)CCCCCC3)[nH]c1=O",
    "target.under.test": "Mannose-6-phosphate isomerase (Homo sapiens)",
    "assigned.label": 0.0
  },
  {
    "molecule": "COc1ccc(OCc2nnc(SCC(=O)O)n2N)cc1",
    "target.under.test": "Mannose-6-phosphate isomerase (Homo sapiens)",
    "assigned.label": 0.0
  },
  {
    "molecule": "COc1cc2c(C#N)c(N3CCCCC3)nc(N)c2c(N)n1",
    "target.under.test": "Mannose-6-phosphate isomerase (Homo sapiens)",
    "assigned.label": 1.0
  },
  {
    "molecule": "CCOC(=O)C1=C(C)NC(SC(C)=O)=NC1c1ccc(OC(C)=O)c(OC)c1 (centres undefined)",
    "target.under.test": "Mannose-6-phosphate isomerase (Homo sapiens)",
    "assigned.label": 0.0
  },
  {
    "molecule": "CCN1C(=O)C(CC(=O)Nc2ccc(OC)cc2)N(CCc2ccc(OC)cc2)C1=S (centres undefined)",
    "target.under.test": "Mannose-6-phosphate isomerase (Homo sapiens)",
    "assigned.label": 0.0
  },
  {
    "molecule": "O=C(CN1CCCc2ccccc21)NCc1ccccc1Cl",
    "target.under.test": "Mannose-6-phosphate isomerase (Homo sapiens)",
    "assigned.label": 0.0
  },
  {
    "molecule": "Cc1ccc(C(c2nnnn2C(C)(C)C)N2CCC(C)CC2)cc1 (centres undefined)",
    "target.under.test": "Mannose-6-phosphate isomerase (Homo sapiens)",
    "assigned.label": 0.0
  },
  {
    "molecule": "Cc1cc(=O)n(-c2ccc(C(=O)O)cc2)[nH]1",
    "target.under.test": "Mannose-6-phosphate isomerase (Homo sapiens)",
    "assigned.label": 0.0
  },
  {
    "molecule": "O=C(O)CC(=O)Nc1ccccc1C(=O)O",
    "target.under.test": "Mannose-6-phosphate isomerase (Homo sapiens)",
    "assigned.label": 0.0
  },
  {
    "molecule": "CN(C)S(=O)(=O)c1cccc(-c2cn3ccccc3n2)c1",
    "target.under.test": "Mannose-6-phosphate isomerase (Homo sapiens)",
    "assigned.label": 0.0
  },
  {
    "molecule": "COc1cc2c(C#N)c(N3CCN(c4ccccc4OC)CC3)nc(N)c2c(N)n1",
    "target.under.test": "Mannose-6-phosphate isomerase (Homo sapiens)",
    "assigned.label": 0.0
  },
  {
    "molecule": "CCCN(CC1CC1)c1nc(N)c2c(N)nc(OC)cc2c1C#N",
    "target.under.test": "Mannose-6-phosphate isomerase (Homo sapiens)",
    "assigned.label": 0.0
  },
  {
    "molecule": "N#Cc1c(N2CCCC2)nc(N)c2c(N)nc(N3CCCC3)cc12",
    "target.under.test": "Mannose-6-phosphate isomerase (Homo sapiens)",
    "assigned.label": 0.0
  },
  {
    "molecule": "CCCn1nnnc1NC(=O)c1cc(Br)ccc1OC",
    "target.under.test": "Mannose-6-phosphate isomerase (Homo sapiens)",
    "assigned.label": 0.0
  },
  {
    "molecule": "CCCCN(CC)c1nc(N)c2c(N)nc(OCC)cc2c1C#N",
    "target.under.test": "Mannose-6-phosphate isomerase (Homo sapiens)",
    "assigned.label": 0.0
  }
]

====

Below: a set of entries, each annotated with reported inhibition.
target.under.test: Mannose-6-phosphate isomerase (Homo sapiens)
assay: inhibitors of human PMI, primary screen, biochemical, fluorescence intensity, coupled assay (AID 1209);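 note: plate controls were DMSO vehicle for no effect and wells lacking substrate for full effect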
assay.setup: purified PMI enzyme, at 20 µM, active compounds read high
The whole screen tested about 190,000 compounds, of which about 810 (0.43%) were called active. The sample holds actives, similar compounds and a random draw of the others, so the mix is not that of the screen.

[
  {
    "compound": "COc1ccccc1NS(=O)(=O)c1cc(NC(=O)C2CC2)ccc1N1CCOCC1",
    "inhibition, %": 15
  },
  {
    "compound": "O=C(Nc1ccc(F)cc1)Nc1ccc(N2CCOCC2)c2nonc12",
    "inhibition, %": 15.4
  },
  {
    "compound": "COc1cc(/C=C/C(=O)OCC(=O)Nc2cc(C(F)(F)F)ccc2N2CCOCC2)ccc1O",
    "inhibition, %": 13
  },
  {
    "compound": "S=C(NCC1CCCO1)Nc1cccc(Cl)c1 (stereo not given)",
    "inhibition, %": -4.4
  },
  {
    "compound": "COc1ccccc1NS(=O)(=O)c1cc(NC(=O)Nc2ccccc2)ccc1N1CCCCC1",
    "inhibition, %": 14.8
  },
  {
    "compound": "CCOC(=O)c1ccccc1NC(=O)COC(=O)c1ccc(C)c(S(=O)(=O)N2CCOCC2)c1",
    "inhibition, %": 6.5
  },
  {
    "compound": "COc1ccccc1NS(=O)(=O)c1cc(NC(=O)CCC2CCCC2)ccc1N1CCOCC1",
    "inhibition, %": 2.1
  },
  {
    "compound": "CC(C)(Cc1ccc(O)cc1)NC(=O)CC(=O)N=Nc1c(O)[nH]c2ccc(Br)cc12",
    "inhibition, %": 1.3
  },
  {
    "compound": "O=C(CSCc1ccc(Br)cc1)N=Nc1c(O)[nH]c2ccccc12",
    "inhibition, %": 4.5
  },
  {
    "compound": "O=C(N/N=C/c1ccccc1C(=O)O)C(=O)N1CCCCC1",
    "inhibition, %": 2.7
  }
]
